Values from PubChem BioAssay AID2060503

Tested on: 817829-284-R-J1-PDC complex spheroids, viability
experimental-protocol: Anticancer human tumor 817829-284-R-J1-PDC patient-derived colon adenocarcinoma cell line growth inhibition [GQUAD]; active means viability on the fitted dose curve at most 10% of control; inactive means the rest
experimental-setup: second compound 1 µM; first compound 0.316 µM
Give your call using only these classes: active, inactive

# fetch the recorded call for CC1COCCN1c1cc(-c2ccnn2C)c2ccnc(-c3ccn[nH]3)c2n1 (stereo not given) + Cc1cnc(CNC(=O)c2c(=O)c3ccc(N4CCCN(C)CC4)nc3n3c2sc2ccccc23)cn1 here
active

# fetch the recorded call for C=CC(=O)N1CCN(c2nc(=O)n(-c3c(C)ccnc3C(C)C)c3nc(-c4c(O)cccc4F)c(F)cc23)C(C)C1 (stereo not given) + Cc1cnc(CNC(=O)c2c(=O)c3ccc(N4CCCN(C)CC4)nc3n3c2sc2ccccc23)cn1 here
inactive

# fetch the recorded call for C=CC(=O)N1CCN(c2nc(=O)n(-c3c(C)ccnc3C(C)C)c3nc(-c4c(O)cccc4F)c(F)cc23)C(C)C1 (stereo not given) + Cc1[nH]c2ccc(F)cc2c1-c1nc2c3cccnc3c3ncccc3c2[nH]1 here
inactive

# fetch the recorded call for Cc1[nH]c2ccccc2c1CCNCc1ccc(/C=C/C(=O)NO)cc1 + CN(C)c1ccc(Nc2c3ccc(NC(=O)CCN4CCCC4)cc3nc3cc(NC(=O)CCN4CCCC4)ccc23)cc1 here
active

# fetch the recorded call for COc1cccc2c1C(=O)c1c(O)c3c(c(O)c1C2=O)CC(O)(C(=O)CO)CC3OC1CC(N)C(O)C(C)O1 (stereo not given) + CN(C)c1ccc(Nc2c3ccc(NC(=O)CCN4CCCC4)cc3nc3cc(NC(=O)CCN4CCCC4)ccc23)cc1 here
inactive

# fetch the recorded call for CC(=O)O[C@H]1C(=O)[C@@]2(C)[C@H]([C@H](OC(=O)c3ccccc3)[C@]3(O)C[C@H](OC(=O)[C@H](O)[C@@H](NC(=O)c4ccccc4)c4ccccc4)C(C)=C1C3(C)C)[C@]1(OC(C)=O)CO[C@@H]1C[C@@H]2O + CN(C)c1ccc(Nc2c3ccc(NC(=O)CCN4CCCC4)cc3nc3cc(NC(=O)CCN4CCCC4)ccc23)cc1 here
active

# fetch the recorded call for CCc1c2c(nc3ccc(O)cc13)-c1cc3c(c(=O)n1C2)COC(=O)[C@]3(O)CC + CN(C)c1ccc(Nc2c3ccc(NC(=O)CCN4CCCC4)cc3nc3cc(NC(=O)CCN4CCCC4)ccc23)cc1 here
active

# fetch the recorded call for CC1COCCN1c1cc(-c2ccnn2C)c2ccnc(-c3ccn[nH]3)c2n1 (stereo not given) + Cc1[nH]c2ccc(F)cc2c1-c1nc2c3cccnc3c3ncccc3c2[nH]1 here
active

# fetch the recorded call for Cn1ncnc1[C@H]1c2n[nH]c(=O)c3cc(F)cc(c23)N[C@@H]1c1ccc(F)cc1 + Cc1[nH]c2ccc(F)cc2c1-c1nc2c3cccnc3c3ncccc3c2[nH]1 here
inactive

# fetch the recorded call for CC1COCCN1c1cc(C2(O)CC3CCC(C2)O3)c2cnn(-c3ccn[nH]3)c2n1 (stereo not given) + Cc1[nH]c2ccc(F)cc2c1-c1nc2c3cccnc3c3ncccc3c2[nH]1 here
active

# fetch the recorded call for CCCS(=O)(=O)Nc1ccc(F)c(C(=O)c2c[nH]c3ncc(-c4ccc(Cl)cc4)cc23)c1F + Cc1[nH]c2ccc(F)cc2c1-c1nc2c3cccnc3c3ncccc3c2[nH]1 here
inactive

# fetch the recorded call for CC(C)(O)C1CCC(Nc2ccc3ncc(-c4cccc(C(F)(F)F)c4)n3n2)CC1 (stereo not given) + Cc1[nH]c2ccc(F)cc2c1-c1nc2c3cccnc3c3ncccc3c2[nH]1 here
inactive

# fetch the recorded call for COc1ncnc(C2CC2)c1-c1ncc2cnn(Cc3ccc(-c4nc(C(F)(F)F)cn4C(C)C)cc3)c2n1 + CN(C)c1ccc(Nc2c3ccc(NC(=O)CCN4CCCC4)cc3nc3cc(NC(=O)CCN4CCCC4)ccc23)cc1 here
inactive

# fetch the recorded call for COc1ncnc(C2CC2)c1-c1ncc2cnn(Cc3ccc(-c4nc(C(F)(F)F)cn4C(C)C)cc3)c2n1 + Cc1cnc(CNC(=O)c2c(=O)c3ccc(N4CCCN(C)CC4)nc3n3c2sc2ccccc23)cn1 here
inactive

# fetch the recorded call for CCCS(=O)(=O)Nc1ccc(F)c(C(=O)c2c[nH]c3ncc(-c4ccc(Cl)cc4)cc23)c1F + CN(C)c1ccc(Nc2c3ccc(NC(=O)CCN4CCCC4)cc3nc3cc(NC(=O)CCN4CCCC4)ccc23)cc1 here
inactive

# fetch the recorded call for CC(=O)O[C@H]1C(=O)[C@@]2(C)[C@H]([C@H](OC(=O)c3ccccc3)[C@]3(O)C[C@H](OC(=O)[C@H](O)[C@@H](NC(=O)c4ccccc4)c4ccccc4)C(C)=C1C3(C)C)[C@]1(OC(C)=O)CO[C@@H]1C[C@@H]2O + Cc1cnc(CNC(=O)c2c(=O)c3ccc(N4CCCN(C)CC4)nc3n3c2sc2ccccc23)cn1 here
inactive

# fetch the recorded call for Cc1cccc(N(C)C(=O)C2C(O)CCN2c2nc(C)cc(C(F)(F)F)c2C#N)c1 (stereo not given) + Cc1cnc(CNC(=O)c2c(=O)c3ccc(N4CCCN(C)CC4)nc3n3c2sc2ccccc23)cn1 here
inactive

# fetch the recorded call for CCc1c2c(nc3ccc(O)cc13)-c1cc3c(c(=O)n1C2)COC(=O)[C@]3(O)CC + Cc1[nH]c2ccc(F)cc2c1-c1nc2c3cccnc3c3ncccc3c2[nH]1 here
active

# fetch the recorded call for CC(C)(O)C1CCC(Nc2ccc3ncc(-c4cccc(C(F)(F)F)c4)n3n2)CC1 (stereo not given) + Cc1cnc(CNC(=O)c2c(=O)c3ccc(N4CCCN(C)CC4)nc3n3c2sc2ccccc23)cn1 here
inactive

# fetch the recorded call for Nc1ccn(C2OC(CO)C(O)C2(F)F)c(=O)n1 (stereo not given) + CN(C)c1ccc(Nc2c3ccc(NC(=O)CCN4CCCC4)cc3nc3cc(NC(=O)CCN4CCCC4)ccc23)cc1 here
active

---

Tested on: 817829-284-R-J1-PDC complex spheroids, viability
experimental-protocol: Anticancer human tumor 817829-284-R-J1-PDC cell line growth inhibition [GQUAD];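 further: spheroids exposed to agents for 7 days before readout; percent viability relative to DMSO vehicle control taken as 100%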
experimental-setup: second compound 0.1 µM; first compound 3.16 µM; active compounds read low
assay-endpoint: viability, T/C

Given the molecule CC1COCCN1c1cc(C2(S(C)(=N)=O)CC2)nc(-c2ccnc3[nH]ccc23)n1 (stereo not given) + CN(C)c1ccc(Nc2c3ccc(NC(=O)CCN4CCCC4)cc3nc3cc(NC(=O)CCN4CCCC4)ccc23)cc1 , what is its reported viability, T/C?
11.1%

Given the molecule O=C(c1cc(Cc2n[nH]c(=O)c3ccccc23)ccc1F)N1CCN(C(=O)C2CC2)CC1 + CN(C)c1ccc(Nc2c3ccc(NC(=O)CCN4CCCC4)cc3nc3cc(NC(=O)CCN4CCCC4)ccc23)cc1 , what is its reported viability, T/C?
100%

Given the molecule O=C(c1cc(Cc2n[nH]c(=O)c3ccccc23)ccc1F)N1CCN(C(=O)C2CC2)CC1 + Cc1[nH]c2ccc(F)cc2c1-c1nc2c3cccnc3c3ncccc3c2[nH]1 , what is its reported viability, T/C?
95.5%

Given the molecule COc1ncnc(C2CC2)c1-c1ncc2cnn(Cc3ccc(-c4nc(C(F)(F)F)cn4C(C)C)cc3)c2n1 + Cc1cnc(CNC(=O)c2c(=O)c3ccc(N4CCCN(C)CC4)nc3n3c2sc2ccccc23)cn1 , what is its reported viability, T/C?
28.4%

Given the molecule C=CC(=O)N1CCN(c2nc(=O)n(-c3c(C)ccnc3C(C)C)c3nc(-c4c(O)cccc4F)c(F)cc23)C(C)C1 (stereo not given) + Cc1[nH]c2ccc(F)cc2c1-c1nc2c3cccnc3c3ncccc3c2[nH]1 , what is its reported viability, T/C?
108%

Given the molecule CC(C)n1c(=O)n(C)c2cnc3cc(F)c(-c4ccc(OCCCN5CCCCC5)nc4)cc3c21 + CN(C)c1ccc(Nc2c3ccc(NC(=O)CCN4CCCC4)cc3nc3cc(NC(=O)CCN4CCCC4)ccc23)cc1 , what is its reported viability, T/C?
105%

Given the molecule COc1cc(C2c3cc4c(cc3C(OC3OC5COC(C)OC5C(O)C3O)C3COC(=O)C23)OCO4)cc(OC)c1O (stereo not given) + CN(C)c1ccc(Nc2c3ccc(NC(=O)CCN4CCCC4)cc3nc3cc(NC(=O)CCN4CCCC4)ccc23)cc1 , what is its reported viability, T/C?
33.9%

Given the molecule COc1cc(C2c3cc4c(cc3C(OC3OC5COC(C)OC5C(O)C3O)C3COC(=O)C23)OCO4)cc(OC)c1O (stereo not given) + Cc1cnc(CNC(=O)c2c(=O)c3ccc(N4CCCN(C)CC4)nc3n3c2sc2ccccc23)cn1 , what is its reported viability, T/C?
15%

Given the molecule CC1COCCN1c1cc(-c2ccnn2C)c2ccnc(-c3ccn[nH]3)c2n1 (stereo not given) + CN(C)c1ccc(Nc2c3ccc(NC(=O)CCN4CCCC4)cc3nc3cc(NC(=O)CCN4CCCC4)ccc23)cc1 , what is its reported viability, T/C?
6.81%

Given the molecule CC(=O)O[C@H]1C(=O)[C@@]2(C)[C@H]([C@H](OC(=O)c3ccccc3)[C@]3(O)C[C@H](OC(=O)[C@H](O)[C@@H](NC(=O)c4ccccc4)c4ccccc4)C(C)=C1C3(C)C)[C@]1(OC(C)=O)CO[C@@H]1C[C@@H]2O + CN(C)c1ccc(Nc2c3ccc(NC(=O)CCN4CCCC4)cc3nc3cc(NC(=O)CCN4CCCC4)ccc23)cc1 , what is its reported viability, T/C?
4.27%
